IC50 listing for selected compounds.
- Tested on: HCV replicon genotype 1b
- EXPERIMENT DESCRIPTION: HCV replicon assay, genotype 1b (cell ELISA for NS3/4A)
- Type: cell-based, hepatitis C virus
- EXPERIMENTAL CONDITIONS: Hepatitis C virus, 96 h, read-out: 1b IC50 (nM), HCV genotype 1b replicon cells, 96 hours incubation, NS3/4A ELISA readout, % of DMSO control
Provide the reading as a plain figure in nM.

INSERT INTO assay_data (compound, readout_value) VALUES
  ('CNC(=O)c1c(-c2ccc(F)cc2)oc2cc(N(C)S(C)(=O)=O)c([C@H]3CCCN(C(=O)c4cc5c(F)cccc5[nH]4)C3)cc12 [Example 88]', 38.7),
  ('CNC(=O)c1c(-c2ccc(F)cc2)oc2cc(N(C)S(C)(=O)=O)c(C3CCN(C)C(c4cc5c(F)cccc5[nH]4)C3)cc12 (centres unmarked) [Example 16]', 106),
  ('CNC(=O)c1c(-c2ccc(F)cc2)oc2cc(N(C)S(C)(=O)=O)c([C@H]3CN(C(=O)c4cc5cccc(F)c5[nH]4)CCO3)cc12 (single isomer, unassigned) [Example 6]', 17.4);

Let's switch to this compound now.
Incoming: Value lookup for IC50; key = CNC(=O)c1c(-c2ccc(F)cc2)oc2cc(N(C)S(C)(=O)=O)c([C@@H]3CCCN(S(=O)(=O)c4ccc5c(c4)CC(=O)N5)C3)cc12 [Example 122]
Outgoing: 22.1
